Test system: MDR1, BCRP
Experiment: MDCKII-MDR1-BCRP efflux assay
Assay type: in vitro ADME
Conditions: dog, pH 7.4, 5 μM compound, HBSS pH 7.4, read-out: MDCK-Mdr1-BCRP efflux ratio
Each entry gets no (0) if its efflux ratio at 120 min, 5 μM stays under 2, and yes (1) if its efflux ratio at 120 min, 5 μM is 2 or above.

Illustrative cases are given below, each with its answer.
Cc1cc2ncnn2cc1Nc1ncc2c(C(F)(F)F)nn(C3CCOCC3)c2n1    no (0)
Cc1cc2ncnn2cc1Nc1ncc2c(C)nn(CCCC(F)(F)F)c2n1    no (0)
COCCn1nc(C)c2cnc(Nc3cn4ncnc4cc3C)nc21    yes (1)
COc1cc(C)c(Nc2ncc3c(C)nn(C4CCOCC4)c3n2)cn1    no (0)
CO[C@H]1CC[C@@H](n2nc(C)c3cnc(Nc4cn5ncnc5cc4C)nc32)CC1    no (0)

# input Check this compound for efflux ratio at 120 min, 5 μM at or above 2: `CO[C@H]1CC[C@H](n2nc(C)c3cnc(Nc4cn5ccnc5cc4C)nc32)CC1`
# output yes (1)

# input Tell me whether efflux ratio at 120 min, 5 μM is at least 2 here: `Cc1cc2ncnn2cc1Nc1ncc2c(C)nn([C@H]3C[C@H](C)C3)c2n1`
# output no (0)

# input Test whether the compound `Cc1cc2ncnn2cc1Nc1ncc2c(C)nn(CCCOC(F)(F)F)c2n1` records efflux ratio at 120 min, 5 μM of 2 or higher.
# output no (0)

# input Determine whether this compound has efflux ratio at 120 min, 5 μM no lower than 2: `Cc1cc2ncnn2cc1Nc1ncc2c(C)nn([C@H]3CC[C@@H](O)CC3)c2n1`
# output yes (1)

# input Tell me whether efflux ratio at 120 min, 5 μM is at least 2 here: `Cc1cc2ncnn2cc1Nc1ncc2c(C)nn(C3COC3)c2n1`
# output yes (1)

# input Hi team, for `Cc1cc2ncnn2cc1Nc1ncc2c(C)nn(C3CCCCC3)c2n1` , is the recorded efflux ratio at 120 min, 5 μM at or above 2?
# output no (0)

# input Identify whether the reported efflux ratio at 120 min, 5 μM of the following compound is 2 or greater: Cc1cc2nccn2cc1Nc1ncc2c(C)nn(CC(C)C#N)c2n1 (stereo not drawn)
# output yes (1)

# input Threshold query (efflux ratio at 120 min, 5 μM >= 2) on `Cc1cc2ncnn2cc1Nc1ncc2c(C)nn(C3CCC4(CC3)CC4)c2n1`
# output no (0)

# input Check this compound for efflux ratio at 120 min, 5 μM at or above 2: `Cc1cc2ncnn2cc1Nc1ncc2c(C)nn([C@H]3C[C@H]4CC[C@@H](C3)O4)c2n1`
# output yes (1)

---

Provide the reported Rat hepatocyte CLint (μl/min/10^−6 cells) of each item.
System: Rat hepatocyte
Experiment: Metabolic stability assay (rat hepatocyte Clint)
Assay type: in vitro ADME
Details: 1 μM compound, cryopreserved hepatocytes 1 million cells per mL
One number for each entry, in μl/min/10^−6 cells.

Cc1cc2nccn2cc1Nc1ncc2c(n1)c(C1CCOCC1)nn2C    3.0

I would be grateful if you could provide Rat hepatocyte CLint (μl/min/10^−6 cells) for each of the following entries.
1. Cc1nn(C2CCOCC2)c2nc(Nc3cn4ncnc4cc3Cl)ncc12
2. COC1CCC(n2nc(C)c3cnc(Nc4cn5ncnc5cc4C)nc32)C1 (single isomer, unassigned) [Example 110]
3. Cc1cc2ncnn2cc1Nc1ncc2c(C)nn(C3CCCOC3)c2n1 (single isomer, unassigned) [Example 30]
4. Cc1cc2ncnn2cc1Nc1ncc2c(C)nn(CC(F)F)c2n1
5. COC1CCC(n2nc(C)c3cnc(Nc4cn5ncnc5cc4C)nc32)C1 (single isomer, unassigned) [Example 108]
6. Cc1cc2ncnn2cc1Nc1ncc2c(C)nn(C3CCOC(C)C3)c2n1 (single isomer, unassigned) [Example 36]
7. CO[C@H]1CC[C@H](c2nn(C)c3cnc(Nc4cn5ncnc5cc4C)nc32)CC1
8. Cc1cc2ncnn2cc1Nc1ncc2c(C)nn(CC3CCOC3)c2n1 (single isomer, unassigned) [Example 53]

# output
11.8
17.4
4.5
4.2
17.2
11.6
7.5
5.0

Could you report Rat hepatocyte CLint (μl/min/10^−6 cells) for every entry in the following list?
1. Cc1cc2ncnn2cc1Nc1ncc2c(C)nn([C@H]3CC[C@@H](O)CC3)c2n1
2. Cc1cc2ncnn2cc1Nc1ncc2c(C)nn(C(C)C)c2n1
3. CO[C@H]1CC[C@H](n2nc(C)c3cnc(Nc4cn5ccnc5cc4C)nc32)CC1
4. COC1CCC(n2nc(C)c3cnc(Nc4cn5ncnc5cc4C)nc32)C1 (single isomer, unassigned) [Example 109]
5. Cc1cc2ncnn2cc1Nc1ncc2c(n1)c(C1CCOCC1)cn2C
6. Cc1cc2ncnn2cc1Nc1ncc2c(C)nn(C3CCOCC3C)c2n1 (single isomer, unassigned) [Example 112]
7. Cc1cc2ncnn2cc1Nc1ncc2c(C)nn(C3CCCOCC3)c2n1 (single isomer, unassigned) [Example 33]

# output
[11.5, 5.5, 13.6, 11.9, 9.8, 7.8, 11.3]
